Target: BRN2 (Homo sapiens)
Sequence (P20265 whole entry): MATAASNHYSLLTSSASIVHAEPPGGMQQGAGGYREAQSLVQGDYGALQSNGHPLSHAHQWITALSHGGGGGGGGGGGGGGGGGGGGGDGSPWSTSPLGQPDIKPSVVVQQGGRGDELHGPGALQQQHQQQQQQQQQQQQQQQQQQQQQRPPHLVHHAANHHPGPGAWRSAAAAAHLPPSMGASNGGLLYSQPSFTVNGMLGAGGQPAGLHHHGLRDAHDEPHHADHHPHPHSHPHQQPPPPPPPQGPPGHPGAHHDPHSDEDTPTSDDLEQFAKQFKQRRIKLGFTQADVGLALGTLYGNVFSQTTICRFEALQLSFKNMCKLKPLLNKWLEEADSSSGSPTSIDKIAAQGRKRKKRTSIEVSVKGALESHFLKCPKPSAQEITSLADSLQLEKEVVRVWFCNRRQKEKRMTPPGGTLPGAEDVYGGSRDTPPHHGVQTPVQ
Test: cell-based
Details: read-out: % BRN2 Inhibition (10 μM), 10 μM compound, 24 hours, 42D^ENZR cells stably expressing BRN2-luciferase reporter; negative = activation
Give true (1) when the value for inhibition at 10 µM is at least 70%. Give false (0) when it is less.

| MOLECULE | ASSIGNED CATEGORY |
| --- | --- |
| Cn1c(-c2ccc(-c3ccccc3)o2)nc2ccc(Cl)cc21 [VPC-18-42] | true (1) |
| Cn1c(-c2ccc(N3CCC(F)(F)CC3)o2)nc2ccc(C(F)(F)F)cc21 [VPC-18-79] | false (0) |
| FC(F)(F)c1ccc2cc(-c3csc(N4CCOCC4)n3)oc2c1 [VPC-18-78] | false (0) |
| Clc1ccc2cc(-c3csc(C4CCCO4)n3)oc2c1 (stereo not shown) [VPC-18-114] | true (1) |

Task: Answer whether inhibition at 10 µM of FC(F)(F)c1ccc2cc(-c3csc(-c4cocn4)n3)oc2c1 [VPC-18-106] is greater than or equal to 70%.
Result: true (1)

Task: Decide: is the reported value of inhibition at 10 µM for Clc1ccc2cc(-c3coc(-c4ccco4)n3)oc2c1 [VPC-18-121] equal to or greater than 70%?
Result: true (1)

Task: Please indicate if the recorded inhibition at 10 µM for Clc1ccc2cc(-c3csc(-c4ncco4)n3)oc2c1 [VPC-18-99] meets or exceeds 70%.
Result: false (0)

Task: Please check the record Clc1ccc2cc(-c3cccc(-c4ccc[nH]4)n3)oc2c1 [VPC-18-149] and state if its inhibition at 10 µM is at or above 70%.
Result: true (1)

Task: # check: inhibition at 10 µM of COc1ccc2cc(-c3csc(-c4ccco4)n3)oc2c1 [VPC-18-118] is greater than or equal to 70%
Result: true (1)

Where do the numbers come from? From patent US20220106304A1.
